These entries and their values trace back to BindingDB's records for patent US20240190824.

- system-tested: Potassium channel subfamily K member 2 (Homo sapiens)
- Sequence (O95069 whole entry): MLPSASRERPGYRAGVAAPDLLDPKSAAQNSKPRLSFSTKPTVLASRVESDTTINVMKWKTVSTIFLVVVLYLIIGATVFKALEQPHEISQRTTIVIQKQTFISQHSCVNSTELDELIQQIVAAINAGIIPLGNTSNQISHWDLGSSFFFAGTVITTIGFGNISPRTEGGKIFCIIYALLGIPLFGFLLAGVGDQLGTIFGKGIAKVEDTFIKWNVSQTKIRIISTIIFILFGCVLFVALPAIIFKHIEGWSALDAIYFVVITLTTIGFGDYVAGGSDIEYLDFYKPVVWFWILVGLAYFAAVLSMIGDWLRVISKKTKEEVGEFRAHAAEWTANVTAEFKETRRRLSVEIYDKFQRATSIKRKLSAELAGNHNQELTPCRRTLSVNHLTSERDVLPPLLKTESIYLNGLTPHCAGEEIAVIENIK
- assay-name: TREK-1 Manual Patch Clamp (hMPC) assay
endpoint-name: IC50

molecule	system-tested	assay-value
Cc1cc(C#Cc2cccc(F)c2)nc(C)c1NC(=O)c1cc(NC(=O)OC(C)(C)C)ccc1Cl [US20240190824, Compound 11]	Potassium channel subfamily K member 2 (Homo sapiens)	32 nM
